- target: THR alpha-LBD (Homo sapiens)
- Construct: except that THR alpha-LBD of a final concentration 0.25 nM was used; purchased Invitrogen PV4687
- Sequence (P10827 163-410 isoform P10827-2 limits assumed, other chains not shown): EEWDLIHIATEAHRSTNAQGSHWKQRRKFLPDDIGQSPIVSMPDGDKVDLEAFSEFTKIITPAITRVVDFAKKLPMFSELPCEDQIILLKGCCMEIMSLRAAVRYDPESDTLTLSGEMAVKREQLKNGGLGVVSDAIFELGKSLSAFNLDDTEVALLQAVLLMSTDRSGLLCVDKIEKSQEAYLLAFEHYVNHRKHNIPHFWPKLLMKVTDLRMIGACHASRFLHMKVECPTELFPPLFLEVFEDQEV
- protocol-description: THR-α Coactivator Peptide Recruitment Assay (LanthaScreen TR-FRET)
- Assay type: biochemical
- assay-setup: TR-FRET coactivator recruitment, THR alpha-LBD 0.25 nM; read-out: THRα EC50
- Method: A time-resolved FRET (TR-FRET) assay was used to test representative compounds of the application. THR-β Coactivator Peptide Recruitment Assay were conducted by using Invitrogen's LanthaScreen™ TR-FRET Thyroid Receptor beta Assay Kit (Catalog no. PV4686). […] After a gentle mix and incubation at room temperature for 2 h, the signal was read on the EnVision Multilabel Plate Reader at wavelengths of 520 nm and 495 nm. […]
pEC50: −log10 of the molar value.
property-label: pEC50

compound	val
NC(=O)C1(NS(=O)(=O)c2cc(Oc3c(Cl)cc(-n4nc(C(F)F)c(=O)[nH]c4=O)cc3Cl)ccc2O)CC1 [Compound 24]	6.70 to 8.70
CS(=O)(=O)N[C@@H]1CCN(S(=O)(=O)c2cc(Oc3c(Cl)cc(-n4nc(C(F)F)c(=O)[nH]c4=O)cc3Cl)ccc2O)C1 [Compound 47]	6.70 to 8.70
O=C(NC1CCC1)c1cc(Oc2c(Cl)cc(-n3nc(C(F)(F)F)c(=O)[nH]c3=O)cc2Cl)ccc1O [Compound 5]	< 6.00
O=C(NC1CCCC1)C1(NS(=O)(=O)c2cc(Oc3c(Cl)cc(-n4nc(C(F)F)c(=O)[nH]c4=O)cc3Cl)ccc2O)CC1 [Compound 90]	6.70 to 8.70
O=c1[nH]c(=O)n(-c2cc(Cl)c(Oc3cc(S(=O)(=O)N[C@H]4CC[C@H](O)CC4)c(O)cn3)c(Cl)c2)nc1C(F)F [Compound 143]	6.00 to 6.70
O=C(NC1CCC1)c1cc(Oc2c(Cl)cc(-n3nc(C(F)F)c(=O)[nH]c3=O)cc2Cl)ccc1O [Compound 1]	6.70 to 8.70
N#Cc1nn(-c2cc(Cl)c(Oc3cc(S(=O)(=O)NC4CC4)c(O)cn3)c(Cl)c2)c(=O)[nH]c1=O [Compound 114]	6.70 to 8.70
